Measured cAMP production activity (%) accompanies every entry in the list below.
assay.target: human PTH1 receptor (Homo sapiens, UniProt Q03431)
Sequence (Q03431 27-593): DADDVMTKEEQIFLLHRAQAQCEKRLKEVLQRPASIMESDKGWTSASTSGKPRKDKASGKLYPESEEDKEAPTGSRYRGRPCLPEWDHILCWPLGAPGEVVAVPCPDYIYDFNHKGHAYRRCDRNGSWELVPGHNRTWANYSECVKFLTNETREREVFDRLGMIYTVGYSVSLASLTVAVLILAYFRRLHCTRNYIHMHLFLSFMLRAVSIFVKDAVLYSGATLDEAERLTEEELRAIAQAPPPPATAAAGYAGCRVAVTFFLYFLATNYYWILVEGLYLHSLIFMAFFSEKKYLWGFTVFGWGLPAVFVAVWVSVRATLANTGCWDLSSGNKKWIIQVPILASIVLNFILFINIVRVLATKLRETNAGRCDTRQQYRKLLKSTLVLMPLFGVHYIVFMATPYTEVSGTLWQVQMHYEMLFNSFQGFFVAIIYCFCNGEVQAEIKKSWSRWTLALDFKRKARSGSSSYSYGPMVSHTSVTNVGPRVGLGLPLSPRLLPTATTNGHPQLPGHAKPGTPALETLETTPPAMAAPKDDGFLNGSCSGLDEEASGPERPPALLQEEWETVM
assay.remarks: In vitro cAMP signal activity in HKRK-B7 cells (LLC-PK1 cells overexpressing the human PTH1 receptor)
Type: cell-based
condition.details: HKRK-B7 cells; compound at 1×10^−3 M; cAMP produced as percentage of that produced by hPTH(1-34) at 100 nM

>  <compound>
Cc1cc(CN2CCCC2=O)cc(C)c1CCS(=O)(=O)N1CCC2(CC1)N=C(C1CCC(CCC(F)(F)F)CC1)NC2=O (stereo not drawn)

>  <cAMP production activity (%)>
79%

$$$$
>  <compound>
O=C1NC(C2CCCCC2)=NC12CCN(S(=O)(=O)c1csc3ccccc13)CC2

>  <cAMP production activity (%)>
33%

$$$$
>  <compound>
Cc1cc(C(=O)N2CCC(C)(O)CC2)cc(C)c1/C=C/S(=O)(=O)N1CCC2(CC1)N=C(c1cccc(S(F)(F)(F)(F)F)c1)NC2=O

>  <cAMP production activity (%)>
108%

$$$$
>  <compound>
Cc1cc(N(C)C(N)=O)c(C)cc1CCS(=O)(=O)N1CCC2(CC1)N=C(C1CCC(C)CC1)NC2=O (stereo not drawn)

>  <cAMP production activity (%)>
101%

$$$$
>  <compound>
O=C1NC(c2cccc(C(F)(F)F)c2)=NC12CCN(S(=O)(=O)c1ccc(Cl)s1)CC2

>  <cAMP production activity (%)>
57%

$$$$
>  <compound>
CC(=O)Nc1ccc(CCS(=O)(=O)N2CCC3(CC2)N=C(Nc2cccc(C(F)(F)F)c2)NC3=O)c(C)c1

>  <cAMP production activity (%)>
69%

$$$$
